// provenance: ChEMBL document CHEMBL4689842

test system: U2OS; assay: Multiplex assay against U2OS; type: toxicity, cell-based; details: human, 24 h, 10 µM, compound concentration 10 uM, replicate 2
The entries below come with measured Population Normal (%) values attached.
measurementKind: Population Normal (%)

> print(dat)
                                    molecule        measurementkind  datavalue
 1  C=CC(=O)Nc1ccc2[nH]c(=O)n(C3CCN(Cc4ccc(-c5nc6cc[nH]c(=O)c6cc5-c5ccccc5)cc4)CC3)c2c1  Population Normal (%)        86%
 2  C=CC(=O)Nc1cccc(Oc2nc(Nc3ccc(N4CCN(C)CC4)cc3OC)ncc2Cl)c1  Population Normal (%)        83%
 3  Cc1c[nH]c2nccc(Oc3c(F)cc(Nc4cc(Cl)nc(N)n4)cc3F)c12  Population Normal (%)        94%
 4  COc1ccccc1CN[C@H]1C2CCN(CC2)[C@H]1C(c1ccccc1)c1ccccc1  Population Normal (%)        98%
 5  Cc1ccc2c(c1)c1c(n2CCc2ccc(C)nc2)CCN(C)C1 [LATREPIRDINE]  Population Normal (%)        95%
 6  COc1cc(Nc2nccc(-c3cnn4nc(OC)ccc34)n2)cc(C(F)(F)F)c1  Population Normal (%)        70%
 7  O=C(c1cc2c(cc1F)OC(c1ccc(F)cc1)(c1ccc(Cl)cc1Cl)O2)N1CCOCC1 (configuration not stated)  Population Normal (%)        93%
 8  CC(C)OC(=O)N1CCC(Oc2ncnc3c2cnn3-c2ccc(S(C)(=O)=O)cc2F)CC1  Population Normal (%)        97%
 9  C[C@]12CC[C@@H]3c4ccc(O)cc4CC[C@H]3[C@@H]1CC[C@@H]2O  Population Normal (%)        96%
10  O=c1cc(N2CCOCC2)oc2c(-c3cccc4c3sc3ccccc34)cccc12  Population Normal (%)        94%
11  Cc1nc(N2CC[C@H](O)C2)ncc1-c1cc(C(F)(F)F)cc2[nH]ncc12  Population Normal (%)        90%
12  CC(C)Oc1ccccc1C(=O)Nc1ccccc1C(=O)Nc1cccc(S(=O)(=O)C(F)(F)F)c1  Population Normal (%)        88%
13  Cc1ccc(C)c(Oc2ccncc2C(=O)N2CCN(C3CC3)c3ccccc32)c1  Population Normal (%)        92%
14  CC(C)NC(=O)N1CC[C@H](NC2=Nc3cc(F)ccc3N(CC(F)F)c3ccc(Cl)cc32)C1  Population Normal (%)        90%
15  CCCSc1nc(N[C@@H]2C[C@H]2c2ccc(F)c(F)c2)c2nnn([C@@H]3C[C@H](OCCO)[C@@H](O)[C@H]3O)c2n1  Population Normal (%)        91%
16  CC1=C(C(=O)Nc2cc3cn[nH]c3cc2F)C(c2ccc(C(F)(F)F)cc2)CC(=O)N1 (configuration not stated)  Population Normal (%)        93%
17  CNC(=O)Nc1ccc(-c2nc(N3CC4CCC(C3)O4)c3cnn(C4CCC5(CC4)OCCO5)c3n2)cc1  Population Normal (%)        93%
